Reference for the values: patent US4215069A

Test system: Milkweed bug
Assay: 7-day residual contact activity against milkweed bug (percent kill)
Type: in vivo, Oncopeltus faciatus
Details: Oncopeltus fasciatus, 168 h; 312 ppm; treated surface aged seven days in light and air; read-out: Percent Kill MWB, 7-day residual activity
# activity at 312 ppm values compiled below
Please state the number and follow it with the unit.

Illustrative cases are given below, each with its answer.
CC1(C)C(C=C(Cl)Sc2ccccc2)C1C(=O)OC(C#N)c1cccc(Oc2ccccc2)c1 (mixture of isomers)	85%
CC1(C)C(C=CSc2ccccc2)C1C(=O)OCc1cccc(Oc2ccccc2)c1 (mixture of isomers)	10%
CC1(C)C(C=CSc2ccccc2)C1C(=O)OC(C#N)c1cccc(Oc2ccccc2)c1 (mixture of isomers)	0%

Lab note: next molecule to report on.
[in] Please indicate recorded activity at 312 ppm of CC1(C)C(C=C(Cl)Sc2ccccc2)C1C(=O)OCc1cccc(Oc2ccccc2)c1 (mixture of isomers) measured with Milkweed bug.
[out] 20%

----------
# mortality at 78 ppm values compiled below
Tested on: southern armyworm (Spodoptera eridania [Cram.])
Assay: Initial contact activity against southern armyworm (percent kill)
Type: in vivo
Details: 78 ppm, 72 hours exposure, read-out: Percent Kill AW, initial activity

Illustrative cases are given below, each with its answer.
CC1(C)C(C=C(Cl)Sc2ccccc2)C1C(=O)OCc1cccc(Oc2ccccc2)c1 (mixture of isomers) [Example 4]	68%
CC1(C)C(C=C(Cl)Sc2ccc(Cl)cc2)C1C(=O)OCc1cccc(Oc2ccccc2)c1 (mixture of isomers) [Example 9]	0%
CC1(C)C(C=CSc2ccc(F)cc2)C1C(=O)OCc1cccc(Oc2ccccc2)c1 (mixture of isomers) [Example 5]	0%
CC1(C)C(C=CSc2ccccc2)C1C(=O)OCc1cccc(Oc2ccccc2)c1 (mixture of isomers) [Example 1]	0%

Lab note: next molecule to report on.
[in] Report measured mortality at 78 ppm; entry is CC1(C)C(C=C(Cl)Sc2ccccc2)C1C(=O)OC(c1cccc(Oc2ccccc2)c1)C(F)(F)F (mixture of isomers) [Example 7]
[out] 0%
